System: IL-1β
Experiment: Inhibition of the release of IL-1β following stimulation with LPS in vivo
Conditions: rat, dose of 2 mg/Kg i.v. 15 minutes before LPS; blood 120 minutes after LPS, ELISA; vs saline controls
Observed Property: % of inhibition of IL-1β (%)
Supply the numeric figure in %, leaving out any unit text.

INPUT: Suppose we examine the compound C=CCc1cc2c(C)c(CN3CCOCC3)c(=O)oc2c(CC=C)c1OCCCOc1c(CC=C)cc2c(C)c(CN3CCOCC3)c(=O)oc2c1CC=C.Cl.Cl [Compound 203152] ; what % of inhibition of IL-1β value has been reported?
OUTPUT: 60

INPUT: Suppose we examine the compound CCN(CC)CCc1c(C)c2ccc(OCC(=O)NC3CCCCC3)c(Cl)c2oc1=O.Cl.Cl [Compound 201330] ; what % of inhibition of IL-1β value has been reported?
OUTPUT: 57

INPUT: Suppose we examine the compound CCCCC(O)COc1ccc2c(C)c(CCN(CC)CC)c(=O)oc2c1Cl.Cl (stereo not shown) [Compound 201326] ; what % of inhibition of IL-1β value has been reported?
OUTPUT: 62

INPUT: Suppose we examine the compound CCCCC(O)COc1ccc2c(C)c(CCN(CC)CC)c(=O)oc2c1.Cl (stereo not shown) [Compound 201273] ; what % of inhibition of IL-1β value has been reported?
OUTPUT: 39

###

For each of the compounds below, state its DMNL (maximum non-lethal dose, MNLD).
Test system: Male CD-1 mice
Assay: Toxicity after a single intravenous administration
Format: in vivo

INPUT: For the record CCOC(=O)[C@@H](N)CSCC(O)COc1ccc2c(C)c(CCN(CC)CC)c(=O)oc2c1.Cl.Cl (stereo partly drawn) , what value of DMNL (maximum non-lethal dose, MNLD) is listed for Male CD-1 mice?
OUTPUT: 200 mg(Kg

INPUT: For the record CCOC(=O)COc1ccc2c(C)c(CCN(CC)CC)c(=O)oc2c1Cl [Compound 201006, Cloricromene, reference compound] , what value of DMNL (maximum non-lethal dose, MNLD) is listed for Male CD-1 mice?
OUTPUT: 12.5 mg(Kg

INPUT: For the record C=CCc1cc2c(C)c(CN3CCOCC3)c(=O)oc2c(CC=C)c1OCCCOc1c(CC=C)cc2c(C)c(CN3CCOCC3)c(=O)oc2c1CC=C.Cl.Cl , what value of DMNL (maximum non-lethal dose, MNLD) is listed for Male CD-1 mice?
OUTPUT: 200 mg(Kg

INPUT: For the record CCCCC(O)COc1ccc2c(C)c(CCN(CC)CC)c(=O)oc2c1Cl.Cl (stereo not drawn) , what value of DMNL (maximum non-lethal dose, MNLD) is listed for Male CD-1 mice?
OUTPUT: 50 mg(Kg

INPUT: For the record CCCCC(O)COc1ccc2c(C)c(CCN(CC)CC)c(=O)oc2c1.Cl (stereo not drawn) , what value of DMNL (maximum non-lethal dose, MNLD) is listed for Male CD-1 mice?
OUTPUT: 100 mg(Kg

INPUT: For the record CCN(CC)CCc1c(C)c2ccc(OCC(=O)NC3CCCCC3)c(Cl)c2oc1=O.Cl.Cl , what value of DMNL (maximum non-lethal dose, MNLD) is listed for Male CD-1 mice?
OUTPUT: 50 mg(Kg

###

Test system: Male CD-1 mice
Experiment: Toxicity after a single intravenous administration
Format: in vivo
From the text: Test 7—Toxicity After a Single Intravenous Administration Male CD-1 mice were used to assess the maximum non-lethal does (MNLD—the highest does at which no cases of mortality are observed) and the maximum tolerated does (MTD—does at which no evident or marked signs of tocicity or altered behaviour are observed).
For each of the compounds below, state its DMT (maximum tolerated dose, MTD).
Supply the numeric figure in mg/kg, leaving out any unit text.

INPUT: Suppose we examine the compound CCOC(=O)[C@@H](N)CSCC(O)COc1ccc2c(C)c(CCN(CC)CC)c(=O)oc2c1.Cl.Cl (some centres unmarked) ; what DMT (maximum tolerated dose, MTD) value has been reported?
OUTPUT: 50

INPUT: Suppose we examine the compound C=CCc1cc2c(C)c(CN3CCOCC3)c(=O)oc2c(CC=C)c1OCCCOc1c(CC=C)cc2c(C)c(CN3CCOCC3)c(=O)oc2c1CC=C.Cl.Cl ; what DMT (maximum tolerated dose, MTD) value has been reported?
OUTPUT: 50

INPUT: Suppose we examine the compound CCN(CC)CCc1c(C)c2ccc(OCC(=O)NC3CCCCC3)c(Cl)c2oc1=O.Cl.Cl ; what DMT (maximum tolerated dose, MTD) value has been reported?
OUTPUT: 25

INPUT: Suppose we examine the compound CCCCC(O)COc1ccc2c(C)c(CCN(CC)CC)c(=O)oc2c1Cl.Cl (centres unmarked) ; what DMT (maximum tolerated dose, MTD) value has been reported?
OUTPUT: 6.25

INPUT: Suppose we examine the compound CCCCC(O)COc1ccc2c(C)c(CCN(CC)CC)c(=O)oc2c1.Cl (centres unmarked) ; what DMT (maximum tolerated dose, MTD) value has been reported?
OUTPUT: 25
